# SYSTEM UNDER TEST: GluN2B-containing NMDA receptors (Homo sapiens, UniProt Q13224)
# Sequence (Q13224 27-1484, other chains not shown): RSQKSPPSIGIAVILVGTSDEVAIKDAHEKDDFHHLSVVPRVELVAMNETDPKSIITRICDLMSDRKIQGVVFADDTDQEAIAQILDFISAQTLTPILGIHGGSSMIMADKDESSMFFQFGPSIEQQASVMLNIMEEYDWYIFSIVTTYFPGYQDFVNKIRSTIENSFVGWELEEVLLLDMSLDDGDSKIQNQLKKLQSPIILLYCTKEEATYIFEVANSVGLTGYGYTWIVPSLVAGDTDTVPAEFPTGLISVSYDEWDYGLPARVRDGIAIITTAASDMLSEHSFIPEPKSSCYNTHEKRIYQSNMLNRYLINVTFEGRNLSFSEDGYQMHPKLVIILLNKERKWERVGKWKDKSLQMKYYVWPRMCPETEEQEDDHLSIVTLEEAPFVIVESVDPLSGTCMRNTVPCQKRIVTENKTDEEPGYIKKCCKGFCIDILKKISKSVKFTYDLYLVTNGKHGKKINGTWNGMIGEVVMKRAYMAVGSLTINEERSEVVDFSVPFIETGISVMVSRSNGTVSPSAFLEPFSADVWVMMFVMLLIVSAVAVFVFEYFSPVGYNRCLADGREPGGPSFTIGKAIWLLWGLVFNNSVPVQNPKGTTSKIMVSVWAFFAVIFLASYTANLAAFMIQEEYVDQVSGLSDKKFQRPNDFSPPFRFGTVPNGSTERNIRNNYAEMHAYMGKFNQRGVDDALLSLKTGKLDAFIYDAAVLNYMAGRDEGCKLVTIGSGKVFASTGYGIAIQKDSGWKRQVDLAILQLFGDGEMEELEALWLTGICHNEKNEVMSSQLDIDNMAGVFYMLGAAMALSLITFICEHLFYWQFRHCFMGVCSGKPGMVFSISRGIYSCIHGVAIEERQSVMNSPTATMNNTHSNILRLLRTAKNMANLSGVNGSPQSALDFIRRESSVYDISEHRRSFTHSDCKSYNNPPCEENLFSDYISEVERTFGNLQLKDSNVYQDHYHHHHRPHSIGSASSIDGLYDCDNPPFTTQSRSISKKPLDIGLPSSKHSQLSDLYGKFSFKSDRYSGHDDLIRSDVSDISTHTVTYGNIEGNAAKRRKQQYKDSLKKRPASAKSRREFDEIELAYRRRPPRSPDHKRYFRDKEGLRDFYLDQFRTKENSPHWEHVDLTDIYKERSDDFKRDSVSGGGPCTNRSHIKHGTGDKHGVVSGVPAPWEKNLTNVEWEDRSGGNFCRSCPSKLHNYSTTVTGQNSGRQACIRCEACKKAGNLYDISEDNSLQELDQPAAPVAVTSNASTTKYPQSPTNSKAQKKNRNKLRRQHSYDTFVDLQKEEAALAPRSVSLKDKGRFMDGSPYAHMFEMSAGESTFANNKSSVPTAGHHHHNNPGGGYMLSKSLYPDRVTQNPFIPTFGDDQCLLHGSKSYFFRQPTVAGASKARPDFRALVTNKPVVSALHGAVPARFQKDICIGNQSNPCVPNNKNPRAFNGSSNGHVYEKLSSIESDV
# EXPERIMENTAL DETAILS: Two-electrode voltage-clamp recordings from Xenopus laevis oocytes, GluN2B
# Format: cell-based
# CONDITION DESCRIPTION: Table 1; in brackets after EC50; percent of response without compound
Record form. Attribute: maximal potentiation Glu N2B. Fill in for each entry.

Lab note: `[N-]=[N+]=Nc1ccc(-c2csc3ncn(CC(=O)N4CCCC4)c(=O)c23)cc1` gave maximal potentiation Glu N2B of 353%

Lab note: `Cc1ccc(-c2c(C)sc3ncn(CC(=O)N4CCCC4)c(=O)c23)cc1C` gave maximal potentiation Glu N2B of 192%

Lab note: `Cc1sc2ncn(CC(=O)N3CCCC3)c(=O)c2c1-c1cccc(Br)c1` gave maximal potentiation Glu N2B of 266%

Lab note: `Cc1sc2ncn(CC(=O)N3CCCC3)c(=O)c2c1-c1cccc([N+](=O)[O-])c1` gave maximal potentiation Glu N2B of 304%

Lab note: `Cc1sc2ncn(CC(=O)N3CCCC3)c(=O)c2c1-c1cccc(-n2cncn2)c1` gave maximal potentiation Glu N2B of 402%

Lab note: `Cc1sc2ncn(CC(=O)N3CCCC3)c(=O)c2c1-c1ccc(Br)cc1` gave maximal potentiation Glu N2B of 163%

Lab note: `CC(C)c1ccc(-c2csc3ncn(CC(=O)N4CCCC4)c(=O)c23)cc1` gave maximal potentiation Glu N2B of 174%

Lab note: `Cc1sc2ncn(CC(=O)N3CCCC3)c(=O)c2c1-c1cccc(Cl)c1` gave maximal potentiation Glu N2B of 301%

Lab note: `Cc1sc2ncn(CC(=O)N3CCCC3)c(=O)c2c1-c1cc(I)cc(I)c1` gave maximal potentiation Glu N2B of 259%

Lab note: `Cc1sc2ncn(CC(=O)N3CCCC3)c(=O)c2c1-c1ccc(OCc2ccccc2)cc1` gave maximal potentiation Glu N2B of 147%
